Target: HLA-B*07:02
Assay: IEDB peptide-MHC binding, purified MHC/direct/fluorescence; filed as Kd, often an IC50 or EC50 that approximates it; bounds were set here for any values at or beyond the usual limits of such assays
Conditions: source organism: Rickettsia prowazekii
pKd: −log10 of the molar value.
ENDPOINT: pKd

The sequence listed as QFAGGSFDF has a reported pKd of ≤ 4.70

The sequence listed as IYSAEFKNY has a reported pKd of ≤ 4.70

###

Target: HLA-B*57:01
Assay: IEDB peptide-MHC binding, purified MHC/competitive/fluorescence; filed as Kd, often an IC50 or EC50 that approximates it; bounds were set here for any values at or beyond the usual limits of such assays
Conditions: source organism: Mycobacterium tuberculosis variant bovis BCG str. Pasteur 1173P2
pKd: −log10 of the molar value.
ENDPOINT: pKd

Entry KPIPHRTVL , tested on HLA-B*57:01, has a reported pKd of ≤ 4.70

###

Biological target: HLA-B*15:01
Assay: IEDB peptide-MHC binding, purified MHC/competitive/fluorescence; filed as Kd, often an IC50 or EC50 that approximates it; bounds were set here for any values at or beyond the usual limits of such assays
Conditions: source organism: Cryptosporidium parvum Iowa II
pKd: −log10 of the molar value.
ENDPOINT: pKd

The sequence listed as KSWLVHWSL has a reported pKd of ≤ 4.70

###

Target: HLA-A*33:01
Assay: IEDB peptide-MHC binding, purified MHC/competitive/radioactivity; filed as Kd, often an IC50 or EC50 that approximates it; bounds were set here for any values at or beyond the usual limits of such assays
Details: source organism: Lassa virus GA391
ENDPOINT: Kd (nM)
Hi! Could you send only the number? It should be in nM, unit omitted.

The sequence listed as NYSRYWYLNH has a reported Kd of 1360

###

Target: HLA-A*31:01
Assay: IEDB peptide-MHC binding, purified MHC/competitive/radioactivity; filed as Kd, often an IC50 or EC50 that approximates it; bounds were set here for any values at or beyond the usual limits of such assays
Details: source organism: Dengue virus 1 Brazil/97-11/1997
Provide the reported Kd of each item.

Entry MTSRMLLNR , tested on HLA-A*31:01, has a reported Kd of ≥ 23.6 µM

Entry MWQLMYFHRR , tested on HLA-A*31:01, has a reported Kd of ≥ 25.7 µM

###

Target: HLA-A*30:02
Assay: IEDB peptide-MHC binding, purified MHC/competitive/radioactivity; filed as Kd, often an IC50 or EC50 that approximates it; bounds were set here for any values at or beyond the usual limits of such assays
Details: source organism: Mammarenavirus lassaense
ENDPOINT: Kd (nM)
Hi! Could you send only the number? It should be in nM, unit omitted.

The sequence listed as AGFTAGLSY has a reported Kd of 149

###

Molecular target: HLA-C*06:02
Assay: IEDB peptide-MHC binding, purified MHC/competitive/fluorescence; filed as Kd, often an IC50 or EC50 that approximates it; bounds were set here for any values at or beyond the usual limits of such assays
Details: source organism: Bacillus anthracis str. A0488
ENDPOINT: pKd
// returns pKd (minus log10 of molar concentration), number only

The sequence listed as RFFKHFMSL has a reported pKd of 5.93

###

Target: HLA-B*15:01
Assay: IEDB peptide-MHC binding, purified MHC/competitive/fluorescence; filed as Kd, often an IC50 or EC50 that approximates it; bounds were set here for any values at or beyond the usual limits of such assays
Conditions: source organism: Influenza A virus (A/Yokohama/22/2002(H1N2))
ENDPOINT: Kd

The sequence listed as WTGMVDGWY has a reported Kd of ≥ 20 µM
